- assay.text: Cytotoxicity, microculture tetrazolium (MTT) test, VERO
- Assay type: cell-based
- particulars: African green monkey, ATCC CCL-81; VERO (normal kidney cells), 24 h incubation, MTT; ± SD
- Description: The cytotoxicity of biaryl monophosphines was tested in vitro in normal (VERO) and cancer-derived (H1HeLa) cells after 24 h of incubation using a microculture tetrazolium test. Table 2 presents the CC50 (concentrations decreasing the cellular viability by 50%) values calculated from dose–response cytotoxicity curves (Figure 4). Cytotoxicity was evaluated using a microculture tetrazolium test as previously described, and details can be found in the Supplementary Materials. […]
readout.name: CC50 at 24 h
A complete answer gives the number followed by the unit.

Record COc1cc(OC)c(-c2c(P(=O)(C3CCCCC3)C3CCCCC3)c(OC)c3ccccc3c2OC)c(OC)c1 . Reported CC50 at 24 h: 9.82 µg/mL

Record COc1cc(OC)c(-c2c(P(=O)(C3CCCCC3)C3CCCCC3)c(O)c3ccccc3c2OC)c(OC)c1 . Reported CC50 at 24 h: 3.11 µg/mL

Record COc1ccccc1-c1c(P(=O)(C2CCCCC2)C2CCCCC2)c(OC)c2ccccc2c1OC . Reported CC50 at 24 h: 7.78 µg/mL

Record COc1ccccc1-c1c(P(=O)(C2CCCCC2)C2CCCCC2)c(O)c2ccccc2c1O . Reported CC50 at 24 h: 4.7 µg/mL
